Tested on: Enterococcus faecium
ASSAY METHOD TEXT: Antibacterial activity against Enterococcus faecium L568 expressing VanS gene after 24 hrs by broth microdilution method
Type: functional
MEASUREMENT PARAMETERS: L568, 24 h
MEASURED PARAMETER: MIC (µg/mL)
Please give a number only; it is taken to be in µg/mL.

Some solved cases for reference:
C=C1NC(=O)[C@H](Cc2c[nH]c3ccc(Cl)cc23)NC(=O)[C@@H](NC(=O)/C(=C/C)NC(=O)[C@@H](N)C(C)C)CSC[C@@H](C(=O)N[C@@H]2C(=O)N3CCC[C@H]3C(=O)NCC(=O)N[C@H](C(=O)N[C@H](C(=O)N[C@H]3CSC[C@@H]4NC(=O)[C@H](CC(=O)O)NC(=O)[C@H](CSC[C@@H]5NC(=O)[C@H](Cc6ccccc6)NC(=O)[C@H](CS/C=C\NC5=O)NC4=O)NC(=O)CNC(=O)CNC(=O)CNC(=O)[C@@H]4CC(O)CN4C3=O)[C@@H](C)O)CSC2C)NC(=O)[C@H](CC(C)C)NC1=O (some centres undefined)	4
C=C1NC(=O)[C@H](Cc2c[nH]c3ccc(Cl)cc23)NC(=O)[C@@H](NC(=O)/C(=C/C)NC(=O)[C@@H](N)C(C)C)CSC[C@@H](C(=O)N[C@@H]2C(=O)N3CCC[C@H]3C(=O)NCC(=O)N[C@H](C(=O)N[C@H](C(=O)N[C@H]3CSC[C@@H]4NC(=O)[C@H](CC(=O)O)NC(=O)[C@H](CSC[C@@H]5NC(=O)[C@H](Cc6ccccc6)NC(=O)[C@H](CS/C=C\NC5=O)NC4=O)NC(=O)CNC(=O)CNC(=O)CNC(=O)[C@@H]4CCCN4C3=O)[C@@H](C)O)CSC2C)NC(=O)[C@H](CC(C)C)NC1=O (some centres undefined)	8
C=C1NC(=O)[C@H](Cc2c[nH]c3ccc(Cl)cc23)NC(=O)[C@@H](NC(=O)/C(=C/C)NC(=O)[C@@H](N)C(C)C)CSC[C@@H](C(=O)N[C@@H]2C(=O)N3CCC[C@H]3C(=O)NCC(=O)N[C@H](C(=O)N[C@H](C(=O)N[C@H]3CSC[C@@H]4NC(=O)[C@H](CC(=O)O)NC(=O)[C@H](CSC[C@@H]5NC(=O)[C@H](Cc6ccccc6)NC(=O)[C@H](CS/C=C\NC5=O)NC4=O)NC(=O)CNC(=O)CNC(=O)CNC(=O)[C@@H]4C(O)C(O)CN4C3=O)[C@@H](C)O)CSC2C)NC(=O)[C@H](CC(C)C)NC1=O (some centres undefined)	4

I am curious: what MIC value has been reported for C=C1NC(=O)[C@H](Cc2c[nH]c3ccccc23)NC(=O)[C@@H](NC(=O)/C(=C/C)NC(=O)[C@@H](N)C(C)C)CSC[C@@H](C(=O)N[C@@H]2C(=O)N3CCC[C@H]3C(=O)NCC(=O)N[C@H](C(=O)N[C@H](C(=O)N[C@H]3CSC[C@@H]4NC(=O)[C@H](CC(=O)O)NC(=O)[C@H](CSC[C@@H]5NC(=O)[C@H](Cc6ccccc6)NC(=O)[C@H](CS/C=C\NC5=O)NC4=O)NC(=O)CNC(=O)CNC(=O)CNC(=O)[C@@H]4CCCN4C3=O)[C@@H](C)O)CSC2C)NC(=O)[C@H](CC(C)C)NC1=O (some centres undefined) ? 32
